// reported tissue uptake at 1 h for each item listed
ASSAY: Biodistribution in Jurkat tumor-bearing CB-17 SCID mice
Type: in vivo
MEASUREMENT_SETUP: female, CB-17 SCID, mouse, in vivo, iv, total radioactivity, Muscle; 1 h p.i.; Jurkat xenograft, CB-17 SCID female mice; read-out: % iD/g Muscle
Positions of bridges follow the written chain, without caps; N, C: chain ends. Non-standard residues stand in square brackets, D forms with d. Residues, ends and D or L forms follow the SMILES beside them. Groups on a side chain read outwards from the residue. Chains are numbered I, II in the order given. *: point of attachment. X6 = CN1/C(=C/C=C/C=C/C2=[N+](CCCCCC(=O)*)c3ccc(S(=O)(=O)[O-])cc3C2(C)C)C(C)(C)c2cc(S(=O)(=O)O)ccc21; Tyr(3-I) = N[C@@H](Cc1ccc(O)c(I)c1)C(=O)O; 2Nal = N[C@@H](Cc1ccc2ccccc2c1)C(=O)O; d2Nal = N[C@H](Cc1ccc2ccccc2c1)C(=O)O; dNMeOrn = CN[C@H](CCCN)C(=O)O; Mercaptoacetyl = O=C(CS)*; 4Abz = Nc1ccc(C(=O)O)cc1; dDap = NC[C@@H](N)C(=O)O
PROPERTY: tissue uptake at 1 h (%ID/g)

compound="C[C@@H](NC(=O)[C@@H](CCCNC(=N)N)NC(=O)[C@@H](Cc1c[nH]cn1)NC(=O)[C@@H](CO)NC(=O)[C@@H](CO)NC(=O)[C@@H](CO)NC(=O)CS)C(=O)Nc1ccc(C(=O)NCCC[C@@H]2C(=O)N[C@@H](CCCNC(=N)N)C(=O)N[C@@H](Cc3ccc4ccccc4c3)C(=O)NCC(=O)N[C@H](Cc3ccc(O)cc3)C(=O)N2C)cc1 [Tc-CXCR4-5] (I: Mercaptoacetyl-[dS][dS][dS][dH][dR][dA][4Abz] / II: cyclo([dY][dNMeOrn]R[2Nal]G); amide I:C-II:2)" readout_value=0.15
compound="C[C@@H](NC(=O)[C@@H](CCCNC(=N)N)NC(=O)[C@@H](CN)NC(=O)CCCCC[N+]1=C(/C=C/C=C/C=C2/N(C)c3ccc(S(=O)(=O)O)cc3C2(C)C)C(C)(C)c2cc(S(=O)(=O)[O-])ccc21)C(=O)Nc1ccc(C(=O)NCCC[C@@H]2C(=O)N[C@@H](CCCNC(=N)N)C(=O)N[C@H](Cc3ccc4ccccc4c3)C(=O)NCC(=O)N[C@@H](Cc3ccc(O)c(I)c3)C(=O)N2C)cc1 [CXCR4-OI-2] (cyclo([Tyr(3-I)][dNMeOrn]([4Abz-dA-dR-dDap-X6])R[d2Nal]G))" readout_value=0.41

---

As shown below, each of these compounds has a reported Cell-bound [%] value.
System: CXCR4-expressing Chem_1 cells
ASSAY: Determination of internalization, dual tracer with 125I-Fc-131
Assay type: cell-based
MEASUREMENT_SETUP: 120 min; of total cellular activity
Non-standard residues stand in square brackets, D forms with d. Residues, ends and D or L forms follow the SMILES beside them. Groups on a side chain read outwards from the residue. *: point of attachment. DOTA = O=C(O)CN1CCN(CC(=O)O)CCN(CC(=O)*)CCN(CC(=O)O)CC1; dTyr(3-I) = N[C@H](Cc1ccc(O)c(I)c1)C(=O)O; 2Nal = N[C@@H](Cc1ccc2ccccc2c1)C(=O)O; dCit = NC(=O)NCCC[C@@H](N)C(=O)O; dNMeOrn = CN[C@H](CCCN)C(=O)O; 4Amb = NCc1ccc(C(=O)O)cc1; 4Abz = Nc1ccc(C(=O)O)cc1; X1 = NCCNCC(CNCCN)C(=O)*; dDap = NC[C@@H](N)C(=O)O
PROPERTY: Cell-bound [%] (%)

compound="C[C@@H](NC(=O)[C@@H](CCCNC(=N)N)NC(=O)[C@@H](CN)NC(=O)CN1CCN(CC(=O)O)CCN(CC(=O)O)CCN(CC(=O)O)CC1)C(=O)Nc1ccc(C(=O)NCCC[C@@H]2C(=O)N[C@@H](CCCNC(=N)N)C(=O)N[C@@H](Cc3ccc4ccccc4c3)C(=O)NCC(=O)N[C@H](Cc3ccc(O)cc3)C(=O)N2C)cc1 [CXCR4-DOTA-3 [Lu]] (cyclo([dY][dNMeOrn]([4Abz-dA-dR-dDap-DOTA])R[2Nal]G))" property="Cell-bound [%]" unit_abbreviation=% readout_value=17.1
compound="C[C@@H](NC(=O)[C@@H](CCCNC(=N)N)NC(=O)[C@@H](CN)NC(=O)C(CNCCN)CNCCN)C(=O)Nc1ccc(C(=O)NCCC[C@@H]2C(=O)N[C@@H](CCCNC(=N)N)C(=O)N[C@@H](Cc3ccc4ccccc4c3)C(=O)NCC(=O)N[C@H](Cc3ccc(O)cc3)C(=O)N2C)cc1 [Tc-CXCR4-14] (cyclo([dY][dNMeOrn]([4Abz-dA-dR-dDap-X1])R[2Nal]G))" property="Cell-bound [%]" unit_abbreviation=% readout_value=1.11
compound="C[C@@H](NC(=O)[C@@H](CCCNC(=N)N)NC(=O)[C@@H](CN)NC(=O)CN1CCN(CC(=O)O)CCN(CC(=O)O)CCN(CC(=O)O)CC1)C(=O)NCc1ccc(C(=O)NCCC[C@@H]2C(=O)N[C@@H](CCCNC(=N)N)C(=O)N[C@@H](Cc3ccc4ccccc4c3)C(=O)NCC(=O)N[C@H](Cc3ccc(O)cc3)C(=O)N2C)cc1 [CXCR4-DOTA-1 [Lu]] (cyclo([dY][dNMeOrn]([4Amb-dA-dR-dDap-DOTA])R[2Nal]G))" property="Cell-bound [%]" unit_abbreviation=% readout_value=4.97
compound="C[C@@H](NC(=O)[C@@H](CCCNC(=N)N)NC(=O)[C@@H](CN)NC(=O)CN1CCN(CC(=O)O)CCN(CC(=O)O)CCN(CC(=O)O)CC1)C(=O)NCc1ccc(C(=O)NCCC[C@@H]2C(=O)N[C@@H](CCCNC(=N)N)C(=O)N[C@@H](Cc3ccc4ccccc4c3)C(=O)NCC(=O)N[C@H](Cc3ccc(O)c(I)c3)C(=O)N2C)cc1 [CXCR4-DOTA-2 [Lu]] (cyclo([dTyr(3-I)][dNMeOrn]([4Amb-dA-dR-dDap-DOTA])R[2Nal]G))" property="Cell-bound [%]" unit_abbreviation=% readout_value=22.2
compound="C[C@@H](NC(=O)[C@@H](CCCNC(N)=O)NC(=O)[C@@H](CN)NC(=O)CN1CCN(CC(=O)O)CCN(CC(=O)O)CCN(CC(=O)O)CC1)C(=O)Nc1ccc(C(=O)NCCC[C@@H]2C(=O)N[C@@H](CCCNC(=N)N)C(=O)N[C@@H](Cc3ccc4ccccc4c3)C(=O)NCC(=O)N[C@H](Cc3ccc(O)cc3)C(=O)N2C)cc1 [CXCR4-DOTA-5 [Lu]] (cyclo([dY][dNMeOrn]([4Abz-dA-dCit-dDap-DOTA])R[2Nal]G))" property="Cell-bound [%]" unit_abbreviation=% readout_value=3.94
compound="C[C@@H](NC(=O)[C@@H](CCCNC(=N)N)NC(=O)[C@@H](CN)NC(=O)CN1CCN(CC(=O)O)CCN(CC(=O)O)CCN(CC(=O)O)CC1)C(=O)Nc1ccc(C(=O)NCCC[C@@H]2C(=O)N[C@@H](CCCNC(=N)N)C(=O)N[C@@H](Cc3ccc4ccccc4c3)C(=O)NCC(=O)N[C@H](Cc3ccc(O)c(I)c3)C(=O)N2C)cc1 [CXCR4-DOTA-4 [Lu]] (cyclo([dTyr(3-I)][dNMeOrn]([4Abz-dA-dR-dDap-DOTA])R[2Nal]G))" property="Cell-bound [%]" unit_abbreviation=% readout_value=37.2

---

ASSAY: Biodistribution in Jurkat tumor-bearing CB-17 SCID mice
Format: in vivo
MEASUREMENT_SETUP: female, CB-17 SCID, mouse, in vivo, iv, total radioactivity, % iD/g Heart
Non-standard residues stand in square brackets, D forms with d. Residues, ends and D or L forms follow the SMILES beside them. Groups on a side chain read outwards from the residue. *: point of attachment. DOTA = O=C(O)CN1CCN(CC(=O)O)CCN(CC(=O)*)CCN(CC(=O)O)CC1; dTyr(3-I) = N[C@H](Cc1ccc(O)c(I)c1)C(=O)O; 2Nal = N[C@@H](Cc1ccc2ccccc2c1)C(=O)O; dNMeOrn = CN[C@H](CCCN)C(=O)O; HYNIC = NNc1ccc(C(=O)*)cn1; 4Amb = NCc1ccc(C(=O)O)cc1; 4Abz = Nc1ccc(C(=O)O)cc1; dDap = NC[C@@H](N)C(=O)O
PROPERTY: tissue uptake at 1 h (%ID/g)

molecule="C[C@@H](NC(=O)[C@@H](CCCNC(=N)N)NC(=O)[C@@H](CN)NC(=O)c1ccc(NN)nc1)C(=O)Nc1ccc(C(=O)NCCC[C@@H]2C(=O)N[C@@H](CCCNC(=N)N)C(=O)N[C@@H](Cc3ccc4ccccc4c3)C(=O)NCC(=O)N[C@H](Cc3ccc(O)cc3)C(=O)N2C)cc1 [Tc-CXCR4-13] (cyclo([dY][dNMeOrn]([4Abz-dA-dR-dDap-HYNIC])R[2Nal]G))" readout_value=0.78
molecule="C[C@@H](NC(=O)[C@@H](CCCNC(=N)N)NC(=O)[C@@H](CN)NC(=O)CN1CCN(CC(=O)O)CCN(CC(=O)O)CCN(CC(=O)O)CC1)C(=O)NCc1ccc(C(=O)NCCC[C@@H]2C(=O)N[C@@H](CCCNC(=N)N)C(=O)N[C@@H](Cc3ccc4ccccc4c3)C(=O)NCC(=O)N[C@H](Cc3ccc(O)c(I)c3)C(=O)N2C)cc1 [CXCR4-DOTA-2 [Lu]] (cyclo([dTyr(3-I)][dNMeOrn]([4Amb-dA-dR-dDap-DOTA])R[2Nal]G))" readout_value=1.04
molecule="C[C@@H](NC(=O)[C@@H](CCCNC(=N)N)NC(=O)[C@@H](CN)NC(=O)CN1CCN(CC(=O)O)CCN(CC(=O)O)CCN(CC(=O)O)CC1)C(=O)Nc1ccc(C(=O)NCCC[C@@H]2C(=O)N[C@@H](CCCNC(=N)N)C(=O)N[C@@H](Cc3ccc4ccccc4c3)C(=O)NCC(=O)N[C@H](Cc3ccc(O)cc3)C(=O)N2C)cc1 [CXCR4-DOTA-3 [Lu]] (cyclo([dY][dNMeOrn]([4Abz-dA-dR-dDap-DOTA])R[2Nal]G))" readout_value=0.53
molecule="C[C@@H](NC(=O)[C@@H](CCCNC(=N)N)NC(=O)[C@@H](CN)NC(=O)CCCCCNC(=O)[C@@H](CNC(=O)CN1CCN(CC(=O)O)CCN(CC(=O)O)CCN(CC(=O)O)CC1)NC(=O)CCCCC[N+]1=C(/C=C/C=C/C=C2/N(C)c3ccc(S(=O)(=O)O)cc3C2(C)C)C(C)(C)c2cc(S(=O)(=O)[O-])ccc21)C(=O)Nc1ccc(C(=O)NCCC[C@@H]2C(=O)N[C@@H](CCCNC(=N)N)C(=O)N[C@@H](Cc3ccc4ccccc4c3)C(=O)NCC(=O)N[C@H](Cc3ccc(O)cc3)C(=O)N2C)cc1 [[^natLu]CXCR4-OI-3, metal not drawn]" readout_value=1.39
